These data points were gathered from patent US5763404A.

Tested on: anaesthesized rats
Experiment: wheal test, intradermal injection
Type: in vivo, rat
Conditions: Table I; 10 ug peptide intradermally
Experimental: The antiovulatory activity, AOA, in rats was determined as described by Humphries et al. (12). Antiovulation assays were performed by counting, on estrus, the number of ova shed by 4-day cycling rats after a single sc injection of the LH-RH analogue in corn oil was administered between 12 and 12:30 p.m. on […]. The control rats received 0.3 mL of the vehicle. […]
Starred links: 1 amine or outer side, 2 acyl side, 3 side chain; linkers in the order of their positions; H or OH if unused. Non-standard residues stand in square brackets, D forms with d. Residues, ends and D or L forms follow the SMILES beside them. *: point of attachment. X5 = O=C([C@H](CCCCNC1CCCC1)N[*:1])[*:2]; dPhe(4-Cl) = N[C@H](Cc1ccc(Cl)cc1)C(=O)O; Pyrimidin2yl(4,6-Me2) = Cc1cc(C)nc(*)n1; d2Nal = N[C@H](Cc1ccc2ccccc2c1)C(=O)O; Lys(iPr) = CC(C)NCCCC[C@H](N)C(=O)O; Orn(iPr) = CC(C)NCCC[C@H](N)C(=O)O; 3Pal = N[C@@H](Cc1cccnc1)C(=O)O; d3Pal = N[C@H](Cc1cccnc1)C(=O)O; Nicotinoyl = O=C(c1cccnc1)*; Orn = NCCC[C@H](N)C(=O)O
We begin with a simple list: items and their reported Wheal.
Numbers only; they are read as mm^2 /10.

| compound | system | quantityUnit | Wheal |
| --- | --- | --- | --- |
| CC(=O)N[C@H](Cc1ccc2ccccc2c1)C(=O)N[C@H](Cc1ccc(Cl)cc1)C(=O)N[C@H](Cc1cccnc1)C(=O)N[C@@H](CO)C(=O)N[C@@H](CCCCNC(=O)c1cccnc1)C(=O)N[C@H](CCCCNC(=O)c1cccnc1)C(=O)N[C@@H](CC(C)C)C(=O)N[C@@H](CCCCNC1CCCC1)C(=O)N1CCC[C@H]1C(=O)N[C@H](C)C(N)=O [compound 25078] (Ac-[d2Nal][dPhe(4-Cl)][d3Pal]SK(Nicotinoyl)[dK](Nicotinoyl)L[X5]P[dA]-NH2) | anaesthesized rats | mm^2 /10 | 147.0 |
| CC(=O)N[C@H](Cc1ccc2ccccc2c1)C(=O)N[C@H](Cc1ccc(Cl)cc1)C(=O)N[C@H](Cc1cccnc1)C(=O)N[C@@H](CO)C(=O)N[C@@H](Cc1cccnc1)C(=O)N[C@H](CCCCNC(=O)c1cccnc1)C(=O)N[C@@H](CC(C)C)C(=O)N[C@@H](CCCNC(C)C)C(=O)N1CCC[C@H]1C(=O)N[C@H](C)C(N)=O [compound 25384] (Ac-[d2Nal][dPhe(4-Cl)][d3Pal]S[3Pal][dK](Nicotinoyl)L[Orn(iPr)]P[dA]-NH2) | anaesthesized rats | mm^2 /10 | 139.9 |

Moving on to the next compound.
-- ask Return Wheal for the following compound: CC(=O)N[C@H](Cc1ccc2ccccc2c1)C(=O)N[C@H](Cc1ccc(Cl)cc1)C(=O)N[C@H](Cc1cccnc1)C(=O)N[C@@H](CO)C(=O)N[C@@H](CCCNc1nc(C)cc(C)n1)C(=O)N[C@H](CCCCNC(=O)c1cccnc1)C(=O)N[C@@H](CC(C)C)C(=O)N[C@@H](CCCCNC(C)C)C(=O)N1CCC[C@H]1C(=O)N[C@H](C)C(N)=O [compound 25506] (Ac-[d2Nal][dPhe(4-Cl)][d3Pal]S[Orn](Pyrimidin2yl(4,6-Me2))[dK](Nicotinoyl)L[Lys(iPr)]P[dA]-NH2)
-- reply 110

----------
We begin with a simple list: items and their reported Wheal Area.
test system: anaesthesized rats; experiment: wheal test, intradermal injection; type: in vivo, rat; settings: 10 ug peptide intradermally
Starred links: 1 amine or outer side, 2 acyl side, 3 side chain; linkers in the order of their positions; H or OH if unused. Non-standard residues stand in square brackets, D forms with d. Residues, ends and D or L forms follow the SMILES beside them. *: point of attachment. X7 = O=C(N[C@H]1CC[C@H](C[C@@H](N[*:1])C(=O)[*:2])CC1)c1cccnc1; dPhe(4-Cl) = N[C@H](Cc1ccc(Cl)cc1)C(=O)O; d2Nal = N[C@H](Cc1ccc2ccccc2c1)C(=O)O; Lys(iPr) = CC(C)NCCCC[C@H](N)C(=O)O; d3Pal = N[C@H](Cc1cccnc1)C(=O)O; Nicotinoyl = O=C(c1cccnc1)*; Picolinoyl = O=C(c1ccccn1)*; Pip = O=C(O)[C@@H]1CCCCN1
Numbers only; they are read as mm^2 /10 μg.

| molecule | Wheal Area, mm^2 /10 μg |
| --- | --- |
| CC(=O)N[C@H](Cc1ccc2ccccc2c1)C(=O)N[C@H](Cc1ccc(Cl)cc1)C(=O)N[C@H](Cc1cccnc1)C(=O)N[C@@H](CO)C(=O)N[C@@H](CCCCNC(=O)c1cccnc1)C(=O)N[C@H](C[C@H]1CC[C@H](NC(=O)c2cccnc2)CC1)C(=O)N[C@@H](CC(C)C)C(=O)N[C@@H](CCCCNC(C)C)C(=O)N1CCC[C@H]1C(=O)N[C@H](C)C(N)=O [IBR 25647] (Ac-[d2Nal][dPhe(4-Cl)][d3Pal]SK(Nicotinoyl)[X7]L[Lys(iPr)]P[dA]-NH2) | 119.5 |

-- ask Write down the reported Wheal Area (system: anaesthesized rats) of CC(=O)N[C@H](Cc1ccc2ccccc2c1)C(=O)N[C@H](Cc1ccc(Cl)cc1)C(=O)N[C@H](Cc1cccnc1)C(=O)N[C@@H](CO)C(=O)N[C@@H](CCCCNC(=O)c1ccccn1)C(=O)N[C@H](CCCCNC(=O)c1ccccn1)C(=O)N[C@@H](CC(C)C)C(=O)N[C@@H](CCCCNC(C)C)C(=O)N1CCCC[C@H]1C(=O)N[C@H](C)C(N)=O [compound 25937] (Ac-[d2Nal][dPhe(4-Cl)][d3Pal]SK(Picolinoyl)[dK](Picolinoyl)L[Lys(iPr)][Pip][dA]-NH2)
-- reply 95.0

----------
system: anaesthesized rats; assay: wheal test, intradermal injection; type: in vivo, rat; conditions: 10 ug peptide intradermally
Starred links: 1 amine or outer side, 2 acyl side, 3 side chain; linkers in the order of their positions; H or OH if unused. Non-standard residues stand in square brackets, D forms with d. Residues, ends and D or L forms follow the SMILES beside them. *: point of attachment. X6 = O=C(N[C@H]1CC[C@H](C[C@@H](N[*:1])C(=O)[*:2])CC1)c1ccccn1; dPhe(4-Cl) = N[C@H](Cc1ccc(Cl)cc1)C(=O)O; d2Nal = N[C@H](Cc1ccc2ccccc2c1)C(=O)O; Lys(iPr) = CC(C)NCCCC[C@H](N)C(=O)O; d3Pal = N[C@H](Cc1cccnc1)C(=O)O; Picolinoyl = O=C(c1ccccn1)*
measurementLabel: Wheal Area (mm^2 /10 μg)
Numbers only; they are read as mm^2 /10 μg.

-- ask Return Wheal Area for the following molecule: CC(=O)N[C@H](Cc1ccc2ccccc2c1)C(=O)N[C@H](Cc1ccc(Cl)cc1)C(=O)N[C@H](Cc1cccnc1)C(=O)N[C@@H](CO)C(=O)N[C@@H](CCCCNC(=O)c1ccccn1)C(=O)N[C@H](C[C@H]1CC[C@H](NC(=O)c2ccccn2)CC1)C(=O)N[C@@H](CC(C)C)C(=O)N[C@@H](CCCCNC(C)C)C(=O)N1CCC[C@H]1C(=O)N[C@H](C)C(N)=O [IV-3] (Ac-[d2Nal][dPhe(4-Cl)][d3Pal]SK(Picolinoyl)[X6]L[Lys(iPr)]P[dA]-NH2)
-- reply 101.0

----------
tested on: anaesthesized rats; experiment: wheal test, intradermal injection; format: in vivo, rat; conditions: Table I; 10 ug peptide intradermally
Starred links: 1 amine or outer side, 2 acyl side, 3 side chain; linkers in the order of their positions; H or OH if unused. Non-standard residues stand in square brackets, D forms with d. Residues, ends and D or L forms follow the SMILES beside them. *: point of attachment. X9 = CN=C(NCCC[C@H](N[*:1])C(=O)[*:2])N(C)C; dPhe(4-Cl) = N[C@H](Cc1ccc(Cl)cc1)C(=O)O; d2Nal = N[C@H](Cc1ccc2ccccc2c1)C(=O)O; Lys(iPr) = CC(C)NCCCC[C@H](N)C(=O)O; d3Pal = N[C@H](Cc1cccnc1)C(=O)O; Nicotinoyl = O=C(c1cccnc1)*
We begin with a simple list: items and their reported Wheal.
Numbers only; they are read as mm^2 /10.

| compound | quantityUnit | Wheal |
| --- | --- | --- |
| CC(=O)N[C@H](Cc1ccc(Cl)cc1)C(=O)N[C@H](Cc1ccc(Cl)cc1)C(=O)N[C@H](Cc1cccnc1)C(=O)N[C@@H](CO)C(=O)N[C@@H](Cc1ccc(O)cc1)C(=O)N[C@H](CCCCNC(=O)c1cccnc1)C(=O)N[C@@H](CC(C)C)C(=O)N[C@@H](CCCCNC(C)C)C(=O)N1CCC[C@H]1C(=O)N[C@H](C)C(N)=O [compound 25337] (Ac-[dPhe(4-Cl)][dPhe(4-Cl)][d3Pal]SY[dK](Nicotinoyl)L[Lys(iPr)]P[dA]-NH2) | mm^2 /10 | 139.9 |

-- ask Return Wheal for the following compound: CN=C(NCCC[C@H](NC(=O)[C@H](CC(C)C)NC(=O)[C@@H](CCCCNC(=O)c1cccnc1)NC(=O)[C@H](CCCCNC(=O)c1cccnc1)NC(=O)[C@H](CO)NC(=O)[C@@H](Cc1cccnc1)NC(=O)[C@@H](Cc1ccc(Cl)cc1)NC(=O)[C@@H](Cc1ccc2ccccc2c1)NC(C)=O)C(=O)N1CCC[C@H]1C(=O)N[C@H](C)C(N)=O)N(C)C [compound 24987] (Ac-[d2Nal][dPhe(4-Cl)][d3Pal]SK(Nicotinoyl)[dK](Nicotinoyl)L[X9]P[dA]-NH2)
-- reply 150.9

-- ask Return Wheal for the following compound: CC(=O)N[C@H](Cc1ccc2ccccc2c1)C(=O)N[C@H](Cc1ccc(Cl)cc1)C(=O)N[C@H](Cc1cccnc1)C(=O)N[C@@H](CO)C(=O)N[C@@H](CCCCNC(=O)c1cccnc1)C(=O)N[C@@H](CCCCNC(=O)c1cccnc1)C(=O)N[C@@H](CC(C)C)C(=O)N[C@@H](CCCCNC(C)C)C(=O)N1CCC[C@H]1C(=O)N[C@H](C)C(N)=O [compound 24934] (Ac-[d2Nal][dPhe(4-Cl)][d3Pal]SK(Nicotinoyl)K(Nicotinoyl)L[Lys(iPr)]P[dA]-NH2)
-- reply 123
